Assay: retention time on BEH HILIC column (20 min gradient, 0.4 mL/min); higher = later elution
Conditions: ionization: ESI positive; LC: HILIC, pH 3.0 ammonium formate
measured-property: retention time on BEH HILIC column (min)
Numeric only. Scale: min

retention time on BEH HILIC column for COc1cc(/C=C/C(=O)O)ccc1O [trans-ferulic acid] ? 0.93

retention time on BEH HILIC column for CCCCCCC(=O)O [Heptanoic acid] ? 0.77

retention time on BEH HILIC column for Cc1cccc(O)c1 [m-cresol] ? 0.77

retention time on BEH HILIC column for O=C(CO)[C@@H](O)[C@H](O)[C@H](O)COP(=O)(O)O [Fructose 6-phospahte] ? 8.86

retention time on BEH HILIC column for O=C(O)[C@@H]1C[C@@H](O)CN1 [Hydroxyproline] ? 7.47

retention time on BEH HILIC column for O=P(O)(O)OC[C@H]1OC(O)[C@H](O)[C@@H](O)[C@@H]1O (stereo not given in full) [Glucose 6-phosphate] ? 9.32

retention time on BEH HILIC column for OC1OC[C@@H](O)[C@H](O)[C@H]1O (stereo partly drawn) [D-xylose] ? 2

retention time on BEH HILIC column for O=C(O)CNC(=O)c1ccccc1 [Hippuric acid] ? 2.16

retention time on BEH HILIC column for O=C(O)Cc1cccc(O)c1 [3-hydroxyphenylacetic acid] ? 0.99

retention time on BEH HILIC column for OC[C@@]1(O)OC[C@@H](O)[C@H](O)[C@@H]1O [D-tagalose] ? 3.02

----------
Experiment: retention time on BEH HILIC column (20 min gradient, 0.4 mL/min); higher = later elution
Conditions: ionization: ESI positive; LC: HILIC, pH 3.0 ammonium formate
I'd be grateful if you could share measured retention time on BEH HILIC column for these entries.
Numeric only. Scale: min

retention time on BEH HILIC column for CC(C)(CO)[C@@H](O)C(=O)NCCC(=O)O [Pantothenic acid] ? 1.96

retention time on BEH HILIC column for CSCC[C@H](N)C(=O)O [L-methionine] ? 6.59

retention time on BEH HILIC column for N[C@@H](Cc1ccccc1)C(=O)O [L-phenylalanine] ? 5.92

retention time on BEH HILIC column for O=C(O)CCCCCCCC(=O)O [Azelaic acid] ? 1

retention time on BEH HILIC column for O=C(O)/C=C(/CC(=O)O)C(=O)O [cis-aconitic] ? 2.24

retention time on BEH HILIC column for Oc1ncnc2nc[nH]c12 [Hypoxanthine] ? 2.28

retention time on BEH HILIC column for O=C[C@H](O)COP(=O)(O)O [D-glyceraldehyde 3-phosphate] ? 11.6

retention time on BEH HILIC column for Cc1cc2nc3c(=O)[nH]c(=O)nc-3n(C[C@H](O)[C@H](O)[C@H](O)COP(=O)(O)OP(=O)(O)OC[C@H]3O[C@@H](n4cnc5c(N)ncnc54)[C@H](O)[C@@H]3O)c2cc1C [FAD] ? 10.5

retention time on BEH HILIC column for N[C@@H](CSSC[C@H](N)C(=O)O)C(=O)O [L-cystine] ? 11.4

retention time on BEH HILIC column for CCC(C)CCC(=O)O (stereo unspecified) [4-methylhexanoic acid] ? 0.99

retention time on BEH HILIC column for N[C@@H](CCSC[C@H](N)C(=O)O)C(=O)O [L-cystathionine] ? 11.3

retention time on BEH HILIC column for OC[C@@H](O)[C@@H](O[C@H]1O[C@H](CO)[C@@H](O)[C@H](O)[C@H]1O)[C@H](O)[C@@H](O)CO [Maltitol] ? 6.7

retention time on BEH HILIC column for Cc1cc2nc3c(=O)[nH]c(=O)nc-3n(C[C@H](O)[C@H](O)[C@H](O)CO)c2cc1C [Riboflavin] ? 5.57

retention time on BEH HILIC column for OC[C@@H](O)[C@H](O)[C@H](O)[C@@H](O)CO [Galactitol] ? 5.56

retention time on BEH HILIC column for Nc1ccccc1C(=O)O [2-aminobenzoic acid] ? 0.82

retention time on BEH HILIC column for Nc1nc(=O)c2[nH]cnc2[nH]1 [Guanine] ? 3.62

retention time on BEH HILIC column for N[C@@H](Cc1ccc(O)cc1)C(=O)O [L-tyrosine] ? 6.67

retention time on BEH HILIC column for OC[C@@H](O)C(O)[C@H](O)CO [D-arabitol] ? 3.12

retention time on BEH HILIC column for CCCCCCCCCCCCCCCCCCCC(=O)O [Arachidic acid] ? 0.79

retention time on BEH HILIC column for OC[C@@H](O)[C@@H](O)CO [Erythritol] ? 2.08

retention time on BEH HILIC column for OC[C@@H](O)[C@@H](O)[C@@H](O)CO [Ribitol] ? 2.85

----------
I'd be grateful if you could share measured retention time on BEH HILIC column for these entries.
Test: retention time on BEH HILIC column (20 min gradient, 0.4 mL/min); higher = later elution
Conditions: ionization: ESI positive; LC: HILIC, pH 3.0 ammonium formate
Numeric only. Scale: min

retention time on BEH HILIC column for O=C(O)Cc1c[nH]c2ccccc12 [Indoleacetic acid] ? 0.9

retention time on BEH HILIC column for CCCCCC(=O)O [Caproic acid] ? 1.25

retention time on BEH HILIC column for O[C@H]1[C@H](O)[C@@H](O)[C@H](O)[C@@H](O)[C@H]1O [myo-inositol] ? 5.84

retention time on BEH HILIC column for CCCCC/C=C\C/C=C\C/C=C\C/C=C\CCCC(=O)O [Arachidonic acid] ? 0.77

retention time on BEH HILIC column for CC/C=C\C/C=C\C/C=C\C/C=C\C/C=C\CCCC(=O)O [Eicosapentaenoic acid] ? 0.75

retention time on BEH HILIC column for C/C(=C/C(=O)O)C(=O)O [Citraconic acid] ? 0.99

retention time on BEH HILIC column for NCCc1ccc(O)c(O)c1 [Dopamine] ? 4.6

retention time on BEH HILIC column for N[C@@H](Cc1cnc[nH]1)C(=O)O [L-histidine] ? 12.6

retention time on BEH HILIC column for NCCCC[C@H](N)C(=O)O [L-lysine] ? 11.3

retention time on BEH HILIC column for CCCCCCCCCC(=O)O [Capric acid] ? 0.75

retention time on BEH HILIC column for C[N+](C)(C)C[C@H](O)CC(=O)O [L-carnitine] ? 8.64

----------
Assay: collision cross section (TWIMS, N2) of ion [M-H]-; higher = larger gas-phase ion cross section
Settings: ionization: ESI negative; LC: HILIC, pH 9.0 ammonium acetate
I'd be grateful if you could share measured collision cross section for these entries.
Numeric only. Scale: Å²

collision cross section for `CCCCCCCC/C=C\CCCCCCCC(=O)O` ? 179.19

collision cross section for `NCCS(=O)(=O)O` ? 119.39

collision cross section for `OC[C@H]1O[C@H](O[C@H]2[C@H](O)[C@H](O)[C@@H](O)O[C@@H]2CO)[C@H](O)[C@@H](O)[C@@H]1O` ? 171.3

collision cross section for `O=C(O)[C@H]1O[C@H](OP(=O)(O)OP(=O)(O)OC[C@H]2O[C@@H](n3ccc(=O)[nH]c3=O)[C@H](O)[C@@H]2O)[C@H](O)[C@@H](O)[C@@H]1O` ? 209.99

collision cross section for `CC(C)(CO)[C@@H](O)C(=O)NCCC(=O)O` ? 146.44

collision cross section for `O=C(O)CNC(=O)Cc1ccccc1` ? 146.28

collision cross section for `N[C@@H](CCC(=O)N[C@@H](CS)C(=O)NCC(=O)O)C(=O)O` ? 166.5

collision cross section for O=C(O)C(O)CCO (stereo not given) [2,4-dihydroxybutyric acid] ? 119.85

collision cross section for `O=C(O)c1cccnc1C(=O)O` ? 128.56

collision cross section for `CC[C@H](N)C(=O)O` ? 121.74

collision cross section for COc1cc(/C=C/C(=O)O)ccc1O [trans-ferulic acid] ? 143.64

collision cross section for O=C[C@H](O)COP(=O)(O)O [D-glyceraldehyde 3-phosphate] ? 131.08

collision cross section for CC(O)C(C)C(=O)O (stereo not given) [3-hydroxy-2-methylbutanoic acid] ? 124.78

collision cross section for `CCCCCCCCCCCCCCCCCCC(=O)O` ? 188.17

collision cross section for `O=C(O)c1cc(O)ccc1O` ? 126.41

----------
Test: collision cross section (TWIMS, N2) of ion [M-H]-; higher = larger gas-phase ion cross section
Details: ionization: ESI negative; LC: HILIC, pH 9.0 ammonium acetate
measured-property: collision cross section (Å²)
Numeric only. Scale: Å²

collision cross section for O=P(O)(O)OC[C@H]1O[C@H](O)[C@H](O)[C@@H]1O [D-ribose 5-phosphate] ? 139.6

collision cross section for `CC(C)CC(=O)O` ? 123.48

collision cross section for CCC(C)(O)C(=O)O (centres undefined) [2-hydroxy-2-methyl butyric acid] ? 124.78

collision cross section for `O=C(O)c1ccc(CO)o1` ? 128.72

collision cross section for `Nc1nc(=O)c2nc(CNc3ccc(C(=O)N[C@@H](CCC(=O)O)C(=O)O)cc3)cnc2[nH]1` ? 187.54

collision cross section for CCCCCCC(=O)OC [Methyl heptanoate] ? 137.2

collision cross section for `Cc1cc2nc3c(=O)[nH]c(=O)nc-3n(C[C@H](O)[C@H](O)[C@H](O)CO)c2cc1C` ? 184.43

collision cross section for `O=C(O)CCCC[C@@H]1SC[C@@H]2NC(=O)N[C@@H]21` ? 153.03

collision cross section for O=C(O)CC(O)c1cccc(O)c1 (centres undefined) [3-(3-hydroxyphenyl)-3-hydroxypropanoic acid] ? 138.92
